- targetOrSystem: Peroxisome proliferator-activated receptor gamma (Homo sapiens) (UniProt P37231)
- Sequence (P37231 whole entry): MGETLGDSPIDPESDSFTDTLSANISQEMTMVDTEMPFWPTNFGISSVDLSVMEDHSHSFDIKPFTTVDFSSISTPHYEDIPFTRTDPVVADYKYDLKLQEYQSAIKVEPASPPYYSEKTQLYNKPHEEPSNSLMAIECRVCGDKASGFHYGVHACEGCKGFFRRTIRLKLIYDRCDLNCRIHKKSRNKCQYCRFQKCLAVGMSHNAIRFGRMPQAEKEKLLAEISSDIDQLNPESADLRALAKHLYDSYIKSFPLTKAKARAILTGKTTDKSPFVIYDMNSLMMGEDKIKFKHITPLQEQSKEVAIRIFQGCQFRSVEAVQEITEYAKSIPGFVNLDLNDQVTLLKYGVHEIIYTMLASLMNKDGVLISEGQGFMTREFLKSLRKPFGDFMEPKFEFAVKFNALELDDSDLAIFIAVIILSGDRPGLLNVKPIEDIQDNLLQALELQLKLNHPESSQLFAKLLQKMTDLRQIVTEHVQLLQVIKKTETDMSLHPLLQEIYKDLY
- procedureText: Antagonist activity at PPARgamma (unknown origin) expressed in HEK293A cells after 16 to 18 hrs by luciferase reporter assay
- Assay type: cell-based
- conditionInfo: HEK293-A
Calls of active or inactive are those of the source. The calls are words filed in the database; no cut-off is given here.
property: inhibition

Record excerpt, results attached:
CCCC(Sc1nc2cc(Cl)ccc2s1)C(=O)NS(=O)(=O)c1ccc(NC(C)=O)cc1 (configuration not stated)	Active
CCCC(Sc1nc2cc(Cl)ccc2s1)C(=O)NS(=O)(=O)c1ccc(Cl)cc1 (configuration not stated)	Active
CCCC(Sc1nc2cc(Cl)ccc2s1)C(=O)NS(=O)(=O)c1ccc(C)cc1 (configuration not stated)	Active
CCCC(Sc1nc2cc(Cl)ccc2s1)C(=O)NS(=O)(=O)c1ccc(OC)cc1 (configuration not stated)	Active
CCCC(Sc1nc2cc(Cl)ccc2s1)C(=O)NS(=O)(=O)c1ccc([N+](=O)[O-])cc1 (configuration not stated)	Active
O=C(NS(=O)(=O)c1ccc([N+](=O)[O-])cc1)C(Sc1nc2cc(Cl)ccc2s1)c1ccccc1 (configuration not stated)	Active

Enquiry: Note down inhibition recorded for CCCC(Sc1nc2cc(Cl)ccc2s1)C(=O)NS(=O)(=O)c1ccc(NC(=O)c2ccccc2)cc1 (configuration not stated)
Return: Active
